Assay: K-562 cytotoxicity assay (MTT)
Format: cell-based, human
Details: human, K-562 cells, 100 uM

molecule | cytotoxicity at 72 h, 100 µM
CC1=C(/C=C/C(C)=C/C=C/C(C)=C/C(=O)O)C(C)(C)CCC1 [Retinoic acid, reference compound] | 62%

Just for reference, patent US7351555B2 is where these values come from.
